Provenance of the data: patent US20150071918A1

- System: H929 myeloma cells
- Type: cell-based, human
- condition description: H929 cells; reference of the 10- and 15-fold statements not expressly named
*1 amine or outer side, *2 acyl side, *3 side chain or, on linkers, in order; H or OH if unused. Where a SMILES comes first, the peptide text is derived from it. Bridges are numbered along the chain shown (N, C = ends). [ ]: non-standard residue; d: D form. The star is where a group is joined. dProlinol(O-CH2CO) = O=C(COC[C@H]1CCCN1[*:1])[*:2]; N(2-Aminoethyl)Gly = O=C(CN(CCN[*:3])[*:1])[*:2]; Nle = CCCC[C@H](N)C(=O)O; Ms = CS(=O)(=O)*
Reported fold more potent than linear HYD1 values for the following compounds.
metric name: fold more potent than linear HYD1 (fold)

compound="CCCC[C@@H]1NC(=O)CN(S(C)(=O)=O)CCNC(=O)[C@H](CCCCN)NC(=O)[C@H](CC(C)C)NC(=O)[C@H](CCCCN)NC(=O)[C@H](CC(C)C)NC(=O)[C@H](CCCCN)NC(=O)COC[C@H]2CCCN2C(=O)[C@H](Cc2c[nH]c3ccccc23)NC(=O)[C@H](C)NC(=O)[C@H](C(C)C)NC(=O)[C@H](C(C)C)NC1=O [MTI-101] (Ms-[N(2-Aminoethyl)Gly][Nle]VVAW[dProlinol(O-CH2CO)]KLKLK; lactam 1-C)" metric_name="fold more potent than linear HYD1" test_result=30
compound="CSCC[C@@H]1NC(=O)CN(S(C)(=O)=O)CCNC(=O)[C@H](CCCCN)NC(=O)[C@H](CC(C)C)NC(=O)[C@H](CCCCN)NC(=O)[C@H](CC(C)C)NC(=O)[C@H](CCCCN)NC(=O)CN(S(C)(=O)=O)CCNC(=O)[C@H](Cc2c[nH]c3ccccc23)NC(=O)[C@H](CO)NC(=O)[C@H](C(C)C)NC(=O)[C@H](C(C)C)NC1=O [Peptide 2, KLKLKT1MVVSWT1]" metric_name="fold more potent than linear HYD1" test_result=2.5
compound="CCCC[C@@H]1NC(=O)CN(S(C)(=O)=O)CCNC(=O)[C@H](CCCCN)NC(=O)[C@H](CC(C)C)NC(=O)[C@H](CCCCN)NC(=O)[C@H](CC(C)C)NC(=O)[C@H](CCCCN)NC(=O)CN(S(C)(=O)=O)CCNC(=O)[C@H](Cc2c[nH]c3ccccc23)NC(=O)[C@H](CO)NC(=O)[C@H](C(C)C)NC(=O)[C@H](C(C)C)NC1=O [Peptide 8, KLKLKT1N*VVSWT1]" metric_name="fold more potent than linear HYD1" test_result=15

====

- Tested on: H929 myeloma cells
- Format: cell-based, human
- condition description: Table 5; H929 multiple myeloma cells, 24 hour peptide treatment; mean and standard deviation of three independent experiments; read-out: IC50
pIC50: −log10 of the molar value. *1 amine or outer side, *2 acyl side, *3 side chain or, on linkers, in order; H or OH if unused. [ ]: non-standard residue; d: D form. T1 = linker NH2CH2CH2N(SO2Me)CH2COOH, CS(=O)(=O)N(CCN[*:1])CC(=O)[*:2]
metric name: pIC50

substance="KLKLKT1WSVVMT1 (cyclo(KLKLK[T1]WSVVM[T1])) [Peptide 10]" test_result=5.23

====

- Tested on: H929 myeloma cells
- Assay type: cell-based, human
- condition description: Table 4; H929 myeloma cells, 24 h, Topro-3 staining and FACS; mean of 3 independent experiments; read-out: IC50
*1 amine or outer side, *2 acyl side, *3 side chain or, on linkers, in order; H or OH if unused. [ ]: non-standard residue; d: D form. T1 = linker NH2CH2CH2N(SO2Me)CH2COOH, CS(=O)(=O)N(CCN[*:1])CC(=O)[*:2]
metric name: IC50 (µM)

substance="KLKLKT1WSVVMT1 (cyclo(KLKLK[T1]WSVVM[T1])) [Peptide 10]" metric_name=IC50 test_result=6.7

====

- System: H929 myeloma cells
- Type: cell-based, human
- condition description: H929 myeloma cells, 24 h treatment, Topro-3 staining and FACS; mean of at least 3 independent experiments; read-out: IC50
*1 amine or outer side, *2 acyl side, *3 side chain or, on linkers, in order; H or OH if unused. [ ]: non-standard residue; d: D form. T1 = linker NH2CH2CH2N(SO2Me)CH2COOH, CS(=O)(=O)N(CCN[*:1])CC(=O)[*:2]; T3 = linker N(CH2)3CHCH2OCH2COOH; Nle = CCCC[C@H](N)C(=O)O
metric name: IC50 (µM)

substance="KLKLKT1WAVVN*T1 (cyclo(KLKLK[T1]WAVV[Nle][T1])) [Peptide 11]" metric_name=IC50 result_unit=µM test_result=10
substance="KLKLKT1WAVAN*T1 (cyclo(KLKLK[T1]WAVAL[T1]); not fully specified (residue 11); printed as KLKLKT1WAVAN*T1) [Peptide 13]" metric_name=IC50 result_unit=µM test_result=9
substance="KLKLKT1WAVVAT1 (cyclo(KLKLK[T1]WAVVA[T1])) [Peptide 12]" metric_name=IC50 result_unit=µM test_result=10
substance="KLKLQT1N*VVAWT3 (cyclo(KLKLQ[T1][Nle]VVAW[T3])) [Peptide 19]" metric_name=IC50 result_unit=µM test_result=12
